test target: HLA-B*51:01
experiment description: IEDB peptide-MHC binding, purified MHC/direct/fluorescence; filed as Kd, often an IC50 or EC50 that approximates it; bounds were set here for any values at or beyond the usual limits of such assays
experimental context: source organism: Camelpox virus CMS
readout label: Kd (µM)

sequence_input=MPAYIRNTL reading=0.676

----------
test target: HLA-B*08:02
experiment description: IEDB peptide-MHC binding, purified MHC/direct/fluorescence; filed as Kd, often an IC50 or EC50 that approximates it; bounds were set here for any values at or beyond the usual limits of such assays
experimental context: source organism: Vibrio vulnificus CMCP6
readout label: Kd (µM)

sequence_input=RGRKRFHTL reading=6.76
